- Test system: Botrytis cinerea
- experimentalDetails: In vivo preventive test on Botrytis cinerea (grey mould)
- conditionParameters: 500 ppm; gherkin plants sprayed 24 hours before contamination; grading 4-5 days after contamination vs control plants
- Description: Gherkin plants (“Vert petit de Paris” variety), sown in starter cups on a 50/50 peat soil-pozzolana substrate and grown at 24° C., are treated at the Z11 cotyledon stage by spraying with the active ingredient prepared as described above. Plants, used as controls, are treated with the mixture of acetone/tween/DMSO/water not containing the active material. […]
measuredParameter: % of efficacy (protection) (%)
Numbers only, in %.

Known results for molecules:
INSERT INTO results (molecule, experimentalvalue) VALUES
  ('C#Cc1cnc2ccc(C3=NOC(C)(C(=O)NC(C)(C)/C=N/OC)C3)cc2c1 (stereo not shown)', 100),
  ('CCCn1cc(CNC(=O)C2(OC)CC(c3ccc4ncc(I)cc4c3)=NO2)c(C)n1 (racemic)', 99),
  ('C#Cc1cnc2ccc(C3=NOC(C=C)(C(=O)NCC4COC(C)(C)O4)C3)cc2c1 (stereo not shown)', 98);

API: the following record is the query input.
State, in one line, measured % of efficacy (protection) of CCn1cc(CNC(=O)C2(SC)CC(c3ccc4ncc(Br)cc4c3)=NO2)c(C)n1 (stereo not shown)
100

----------
Can you tell me % of efficacy (protection) for the items I'm about to list?
- Test system: Pyrenophora teres
- experimentalDetails: In vivo preventive test on Pyrenophora teres (net blotch on barley)
- conditionParameters: 500 ppm; barley plants sprayed 24 hours before contamination; grading 12 days after contamination vs control plants
One number for each entry, in %.

Solved entries:
INSERT INTO assay_data (compound, unitdescriptor, experimentalvalue) VALUES
  ('CC(C)NC(=O)C1(C)CC(c2ccc3ncc(C(F)(F)F)cc3c2)=NO1 (racemic)', '%', 86),
  ('CC1(C)OCC(CNC(=O)C2(C)CC(c3ccc4ncc(Br)cc4c3)=NO2)O1 (centres unmarked)', '%', 88),
  ('Cc1cnc2ccc(C3=NOC(C)(C(=O)NC(C)C)C3)cc2c1 (centres unmarked)', '%', 75),
  ('C#Cc1cnc2ccc(C3=NOC(C)(C(=O)NCc4ccc(Cl)cc4)C3)cc2c1 (centres unmarked)', '%', 71),
  ('COC1(C(=O)NC(C)C)CC(c2ccc3ncc(I)cc3c2)=NO1 (racemic)', '%', 92),
  ('CCn1cc(CNC(=O)C2(OC)CC(c3ccc4ncc(Br)cc4c3)=NO2)c(C)n1 (centres unmarked)', '%', 75),
  ('CCOCCCNC(=O)C1(C(F)(F)F)CC(c2ccc3ncc(Br)cc3c2)=NO1 (centres unmarked)', '%', 79),
  ('C#Cc1cnc2ccc(C3=NOC(C)(C(=O)NCc4ccccc4)C3)cc2c1 (centres unmarked)', '%', 79),
  ('C#Cc1cnc2ccc(C3=NOC(C)(C(=O)NCc4cccc5ccccc45)C3)cc2c1 (centres unmarked)', '%', 79),
  ('C=C(C)C1(C(=O)NCC2COC(C)(C)O2)CC(c2ccc3ncc(Br)cc3c2)=NO1 (centres unmarked)', '%', 88);

Take each entry in turn and give its % of efficacy (protection).
1. C#Cc1cnc2ccc(C3=NOC(C)(C(=O)NCc4ccc(Cl)cc4Cl)C3)cc2c1 (centres unmarked)
2. C#CCONC(=O)C1(C)CC(c2ccc3ncc(Br)cc3c2)=NO1 (centres unmarked)
3. Cc1c(CNC(=O)C2(C)CC(c3ccc4ncc(Br)cc4c3)=NO2)cnn1C (centres unmarked)
4. C#Cc1cnc2ccc(C3=NOC(C)(C(=O)NCc4ccc5c(c4)CCO5)C3)cc2c1 (centres unmarked)
5. CCn1cc(CNC(=O)C2(C)CC(c3ccc4ncc(C(F)(F)F)cc4c3)=NO2)c(C)n1 (racemic)
6. CC(C)NC(=O)C1(C)CC(c2ccc3ncc(N)cc3c2)=NO1 (racemic)

1: 86; 2: 75; 3: 86; 4: 71; 5: 86; 6: 83

Give the reported % of efficacy (protection) for this compound. COC1(C(=O)NC(C)C)CC(c2ccc3ncc(Br)cc3c2)=NO1 (centres unmarked)
93

----------
- Tested on: Septoria tritici
- experimentalDetails: In vivo preventive test on Septoria tritici (leaf spot on wheat)
- conditionParameters: 500 ppm; wheat plants sprayed 24 hours before contamination; grading 21 to 28 days after contamination vs control plants
measuredParameter: % of efficacy (protection) (%)
Answers are plain numbers, in %.

Consider the following illustrative entries.
INSERT INTO assay_data (compound, experimentalvalue) VALUES
  ('C#Cc1cnc2ccc(C3=NOC(C)(C(=O)NC(C)COC)C3)cc2c1 (racemic)', 100),
  ('C#Cc1cnc2ccc(C3=NOC(CC)(C(=O)NCc4cn(CCC)nc4C)C3)cc2c1 (racemic)', 94),
  ('COC(CNC(=O)C1(C)CC(c2ccc3ncc(Br)cc3c2)=NO1)OC (centres unmarked)', 96),
  ('C#Cc1cnc2ccc(C3=NOC(C)(C(=O)NC(C)(C)C)C3)cc2c1 (centres unmarked)', 98),
  ('C#Cc1cnc2ccc(C3=NOC(C)(C(=O)NCC4CCC(C(F)(F)F)CC4)C3)cc2c1 (centres unmarked)', 75),
  ('CCn1cc(CNC(=O)C2(C)CC(c3cc(Cl)c4ncc(Br)cc4c3)=NO2)c(C)n1 (racemic)', 100);

Hi there! I need % of efficacy (protection) for each item below, if you can.
1. C#Cc1cnc2ccc(C3=NOC(C)(C(=O)NC4CC4)C3)cc2c1 (centres unmarked)
2. CCOCCCNC(=O)C1(C)CC(c2cc(Cl)c3ncc(Br)cc3c2)=NO1 (centres unmarked)

1: 100; 2: 83

----------
- Format: physicochemical
- conditionParameters: HPLC on reversed phase columns, method [a]: pH 2.7, 0.1% formic acid in water / acetonitrile, linear gradient 10% to 95% acetonitrile
measuredParameter: log P

Worked cases, log P given:
INSERT INTO assay_data (molecule, experimentalvalue) VALUES
  ('C#CCOc1coc(CNC(=O)C2(C)CC(c3ccc4ncc(C#C)cc4c3)=NO2)cc1=O (centres unmarked)', '1.98^[a]'),
  ('CN(C)CCCNC(=O)C1(C)CC(c2ccc3ncc(Br)cc3c2)=NO1 (centres unmarked)', '1.23[a]'),
  ('COc1ncccc1CNC(=O)C1(C)CC(c2ccc3ncc(Br)cc3c2)=NO1 (centres unmarked)', '2.82[a]'),
  ('C#Cc1cnc2ccc(C3=NOC(C)(C(=O)NC(CN4CCCC4)C4CC4)C3)cc2c1 (centres unmarked)', '1.37[a]');

Provide log P for all items below, preserving their order.
1. CC1(C(=O)NC2CCC2)CC(c2ccc3ncc(Br)cc3c2)=NO1 (centres unmarked)
2. CC(C)NC(=O)C12CCCC1C(c1ccc3ncc(Br)cc3c1)=NO2 (centres unmarked)
3. CCn1cc(CNC(=O)C2(c3ccccc3)CC(c3ccc4ncc(Br)cc4c3)=NO2)c(C)n1 (centres unmarked)
4. CC1(C(=O)NCC2CCCCC2)CC(c2ccc3ncc(Br)cc3c2)=NO1 (centres unmarked)
5. COC1(C(=O)NCC2COC(C)(C)O2)CC(c2cc(C)c3ncc(Br)cc3c2)=NO1 (centres unmarked)
6. C=C(C)C1(C(=O)NCc2cn(CC)nc2C)CC(c2ccc3ncc(Br)cc3c2)=NO1 (centres unmarked)
7. Cc1cnc(CNC(=O)C2(C)CC(c3cc(Cl)c4ncc(Br)cc4c3)=NO2)cn1 (centres unmarked)

1: 2.9^[a]; 2: 3.19^[a]; 3: 3.18[a]; 4: 3.96^[a]; 5: 3.33[a]; 6: 2.91[a]; 7: 2.64[a]

Items follow; give log P for each.
1. CCOCCCNC(=O)C1(C)CC(c2cc(Cl)c3ncc(Br)cc3c2)=NO1 (centres unmarked)
2. CCn1cc(CNC(=O)C2(C3CC3)CC(c3ccc4ncc(Br)cc4c3)=NO2)c(C)n1 (centres unmarked)
3. CC(C)NC(=O)C1(C)CC(c2ccc3nc(C#N)c(Br)cc3c2)=NO1 (centres unmarked)
4. Cc1cc(C2=NOC(C)(C(=O)NCC3COC(C)(C)O3)C2)cc2cc(Br)cnc12 (centres unmarked)
5. C#CCCNC(=O)C1(C)CC(c2ccc3ncc(Br)cc3c2)=NO1 (centres unmarked)

3.25[a]
2.73[a]
3.00[a]
3.39[a]
2.52[a]

Given C#Cc1cnc2c(Cl)cc(C3=NOC(C)(C(=O)NC(C)C)C3)cc2c1 (centres unmarked) , respond with its log P.
2.96[a]

----------
- System: Septoria tritici
- experimentalDetails: In vivo preventive test on Septoria tritici (leaf spot on wheat)
- conditionParameters: 500 ppm; wheat plants sprayed 24 hours before contamination; grading 21 to 28 days after contamination vs control plants
For each record, write down the corresponding % of efficacy (protection).
One number for each entry, in %.

Example entries begin here.
INSERT INTO assay_data (compound, targetundertest, unitdescriptor, experimentalvalue) VALUES
  ('C#Cc1cnc2ccc(C3=NOC(C)(C(=O)NCC4OCCc5ccccc54)C3)cc2c1 (single isomer, unassigned)', 'Septoria tritici', '%', 71),
  ('C#Cc1cnc2c(Cl)cc(C3=NOC(C)(C(=O)NCCCOCC)C3)cc2c1 (racemic)', 'Septoria tritici', '%', 100),
  ('CC(C)c1noc(C(C)NC(=O)C2(C)CC(c3ccc4ncc(Br)cc4c3)=NO2)n1 (stereo not shown)', 'Septoria tritici', '%', 83);

Input C=C(C)C1(C(=O)NCC2COC(C)(C)O2)CC(c2ccc3ncc(Br)cc3c2)=NO1 (stereo not shown) , output reported % of efficacy (protection).
79

Where these numbers come from: patent US9510598B2
